- assayComment: Multiple dosing study in dogs: systemic exposure (plasma) to fexinidazole and its metabolites
- Assay type: in vivo, dog
- conditionsUsed: male, dog, plasma, po, 800 mg/kg/day, Male Dog, 800 mg/kg/day oral, D14, mean ± SD, n = 5; read-out: AUC0-t (last)
attributeMeasured: AUC(0-t) (ng·h/mL)
I only need the number, in ng·h/mL, no unit after it.

So what's the measured AUC(0-t) for this one? CSc1ccc(OCc2ncc([N+](=O)[O-])n2C)cc1 [Fexinidazole, fexinidazole]
929

* * *

- assayComment: Multiple dosing study in dogs: systemic exposure (plasma) to fexinidazole and its metabolites
- Type: in vivo, dog
- conditionsUsed: male, dog, plasma, po, 800 mg/kg/day, Male Dog, 800 mg/kg/day oral, D1, mean ± SD, n = 5; read-out: AUC0-t (last)
attributeMeasured: AUC(0-t) (ng·h/mL)
I only need the number, in ng·h/mL, no unit after it.

So what's the measured AUC(0-t) for this one? CSc1ccc(OCc2ncc([N+](=O)[O-])n2C)cc1
776

* * *

- assayComment: Multiple dosing study in dogs: systemic exposure (plasma) to fexinidazole and its metabolites
- Format: in vivo, dog
- conditionsUsed: dog, plasma, oral, 50 mg/kg/day, 50 mg/kg/day oral, Day 1, 1 hour; read-out: Average plasma concentrations of fexinidazole
attributeMeasured: concentration at 1 h (ng/mL)
I only need the number, in ng/mL, no unit after it.

So what's the measured concentration at 1 h for this one? CSc1ccc(OCc2ncc([N+](=O)[O-])n2C)cc1 [Fexinidazole, fexinidazole]
30.3

* * *

- assayComment: Multiple dosing study in dogs: systemic exposure (plasma) to fexinidazole and its metabolites
- Assay type: in vivo, dog
- conditionsUsed: male, dog, plasma, po, 800 mg/kg/day, Male Dog, 800 mg/kg/day oral, D28, mean ± SD, n = 5
attributeMeasured: Tmax
A complete answer gives the number followed by the unit.

So what's the measured Tmax for this one? CSc1ccc(OCc2ncc([N+](=O)[O-])n2C)cc1
1.2 h

* * *

- assayComment: Multiple dosing study in dogs: systemic exposure (plasma) to fexinidazole and its metabolites
- Format: in vivo, dog
- conditionsUsed: male, dog, plasma, po, 50 mg/kg/day, Male Dog, 50 mg/kg/day oral, D14, mean ± SD, n = 3
attributeMeasured: Cmax (ng/mL)
I only need the number, in ng/mL, no unit after it.

So what's the measured Cmax for this one? CSc1ccc(OCc2ncc([N+](=O)[O-])n2C)cc1
26.5

* * *

- assayComment: Multiple dosing study in dogs: systemic exposure (plasma) to fexinidazole and its metabolites
- Type: in vivo, dog
- conditionsUsed: male, dog, plasma, po, 50 mg/kg/day, Male Dog, 50 mg/kg/day oral, D28, mean ± SD, n = 3
attributeMeasured: Cmax (ng/mL)
I only need the number, in ng/mL, no unit after it.

So what's the measured Cmax for this one? CSc1ccc(OCc2ncc([N+](=O)[O-])n2C)cc1
20.3

* * *

- assayComment: Multiple dosing study in dogs: systemic exposure (plasma) to fexinidazole and its metabolites
- Type: in vivo, dog
- conditionsUsed: dog, plasma, oral, 200 mg/kg/day, 200 mg/kg/day oral, Day 14, 1 hour; read-out: Average plasma concentrations of fexinidazole
attributeMeasured: concentration at 1 h (ng/mL)
I only need the number, in ng/mL, no unit after it.

So what's the measured concentration at 1 h for this one? CSc1ccc(OCc2ncc([N+](=O)[O-])n2C)cc1
63.2
